Provenance of the data: paper PMC11077815

Examples of compounds with documented Cell viability (100%) follow.
- Tested on: PC-9
- TEST NAME: CCK8 cell viability assay, PC-9
- Type: cell-based, Human
- RUN CONDITIONS: PC9, 20 µM, 48 h, CCK8; control = 100%
Just the number please, in %, no unit attached.

Known Cell viability (100%) results, listed for orientation:
>  <COMPOUND>
COc1c2n(cc(C(=O)Nc3cccc(-c4cn(-c5ccccc5OC(F)(F)F)nn4)c3)c1=O)C[C@@H]1OCC[C@@H](C)N1C2=O

>  <Cell viability (100%)>
18.95

$$$$
>  <COMPOUND>
CCc1ccc(-n2cc(-c3cccc(NC(=O)c4cn5c(c(OC)c4=O)C(=O)N4[C@H](C)CCO[C@H]4C5)c3)nn2)cc1

>  <Cell viability (100%)>
63.65

$$$$
>  <COMPOUND>
COc1cccc(Cn2cc(-c3cccc(NC(=O)c4cn5c(c(OC)c4=O)C(=O)N4[C@H](C)CCO[C@H]4C5)c3)nn2)c1 [Compound 10d]

>  <Cell viability (100%)>
83.17

$$$$
>  <COMPOUND>
COc1c2n(cc(C(=O)Nc3cccc(-c4cn(-c5ccc(F)cc5)nn4)c3)c1=O)C[C@@H]1OCC[C@@H](C)N1C2=O

>  <Cell viability (100%)>
88.64

$$$$
>  <COMPOUND>
CCc1ccccc1-n1cc(-c2cccc(NC(=O)c3cn4c(c(OC)c3=O)C(=O)N3[C@H](C)CCO[C@H]3C4)c2)nn1

>  <Cell viability (100%)>
23.40

$$$$

Now for a further compound.
Ask | // query Cell viability (100%) value for entry COc1c2n(cc(C(=O)Nc3cccc(-c4cn(-c5ccccc5)nn4)c3)c1=O)C[C@@H]1OCC[C@@H](C)N1C2=O
Reply | 94.56
